Assay: chemical genetic growth profiling, strain panel (AID 1159580);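 note: tested at 20 µM; growth read once vehicle control cultures reached saturation at 30 °C; 1 = growth at the plate median or of vehicle wells; lower values mean less growth of the strain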
Details: S. cerevisiae deletion strains, growth OD, locus YOR270C, strain vph1, active compounds read low
Among all 5,500 compounds or so, about 2,000 (36%) were called active. About 18% were inconclusive and are not listed. This is one part of the list.
Give measured normalized growth for each item. Keep answers brief.
Lab note: write the figure by itself, no unit.

Param item = CC(=O)O[C@H]1C[C@@H](O)C(C)(C)C2C[C@@H](OC(C)=O)[C@]3(C)C(CC[C@@]4(C)[C@H](c5ccoc5)OC(=O)C5OC543)[C@]21C (stereo not given in full) ; retrieve measured normalized growth.
0.967

Param item = [N-]=[N+]=CC(=O)OCC(N)C(=O)O (stereo not given) ; retrieve measured normalized growth.
1.03

Param item = CC(=O)O[C@@H]1CC2C(C)(C)C(=O)CC[C@]2(C)C2CC[C@@]3(C)[C@H](c4ccoc4)OC(=O)C4OC43[C@@]21C (stereo not given in full) ; retrieve measured normalized growth.
0.835

Param item = CN1CCN2c3ccccc3Cc3ccccc3C2C1 (stereo not given) ; retrieve measured normalized growth.
0.993

Param item = FC(F)(F)C(Cl)Br (stereo not given) ; retrieve measured normalized growth.
1.08
